- Tested on: TK-10 renal
- test.method.notes: NCI tumour cell line growth inhibition, 48 h
Overview of recorded GI50 for various compounds

INSERT INTO measurements (compound, readout_kind, observed_value) VALUES
  ('Fc1ccc(-c2nn3c(COc4ccc(Cl)cc4Cl)nnc3s2)cc1Oc1ccccc1', 'GI50', '12.2 µM'),
  ('O=C1NC(=O)C(c2c[nH]c3ccccc23)=C1c1ccccc1', 'GI50', '> 25 µM'),
  ('C[C@H](c1ccccc1)N(CCC(=O)O)C(=O)CCN(C(=O)CCN(C(=O)CCN[C@H](C)c1ccccc1)[C@H](C)c1ccccc1)[C@H](C)c1ccccc1', 'GI50', '> 100 µM'),
  ('Oc1cccc(-c2nc(-c3ccccc3)[nH]c2-c2ccncc2)c1', 'GI50', '16.5 µM'),
  ('COc1ccc2c(c1)C(=O)c1c-2c(N2CCN(C(=O)CCNCCNCCO)CC2)nc2ccccc12', 'GI50', '22.5 µM'),
  ('COc1cc(Cn2c(SCC(=O)Nc3ccc(Cl)cc3)nc3ccccc3c2=O)cc(OC)c1OC', 'GI50', '2.63 µM'),
  ('Fc1ccc(-c2c(-c3ccncc3)[nH]c3nccnc23)cc1', 'GI50', '5.94 µM'),
  ('OCc1ccc(N(Cc2ccc(F)cc2)CC2CCC2)cc1Cl', 'GI50', '0.705 µM');

Task: # get_value(readout='GI50', item= Cc1cc(N)cc(C)c1-c1c(Br)cc(N)cc1Br )
Result: 5.67 µM

Task: Consider next the compound CC[C@@]1(O)C(=O)NCc2c1cc1n(c2=O)Cc2cc3c(NC(C)=O)cccc3nc2-1 in the same way.
Result: > 100 µM

Task: Consider next the compound O=C(c1ccco1)c1c(C(F)(F)F)n([O-])c2ccc(F)cc2[n+]1=O in the same way.
Result: 1.42 µM

Task: Consider next the compound Cc1cc2c(cc1Cl)N1C(=O)NS(=O)(=O)N=C1NS2(=O)=O in the same way.
Result: > 100 µM

Task: Consider next the compound COc1cc(NC(C)CCCN2C(=O)c3ccccc3C2=O)c2ncccc2c1OC (stereo not drawn) in the same way.
Result: 40.5 µM

Task: Consider next the compound COc1ccc2c(c1)N(CCO)C1=C(C(=O)OC1)C2c1ccc(OC)c(OC)c1 (stereo not drawn) in the same way.
Result: 4.19 µM

Task: Consider next the compound O=C(Nc1ccccc1)Nc1ccc(Cl)c(Cl)c1 in the same way.
Result: 3.83 µM

Task: Consider next the compound O=C(CSc1ncc(-c2ccccc2)n1-c1ccccc1)Nc1ccc(-c2nc3ccccc3s2)cc1 in the same way.
Result: 34.4 µM

Task: Consider next the compound CC1(O)COCCCCOc2c(CN)cccc2NC(=O)c2nc(cnc2N)-c2ccc(cc2)S(=O)(=O)C(C)(C)C1 (stereo not drawn) in the same way.
Result: 1.64 µM

Task: Consider next the compound COc1cc(NC(=O)c2ccccc2Nc2ccnc(C(F)(F)F)c2)cc(OC)c1OC in the same way.
Result: 72.3 µM

---

- Tested on: NCI-H460 lung
- test.method.notes: NCI tumour cell line growth inhibition, 48 h
readout.kind: TGI

// known answers, use as guide
INSERT INTO assay_data (compound, observed_value) VALUES
  ('CCOC(=O)CC(=O)CSc1c(-c2ccccc2)c(=O)n(-c2ccccc2)c(=S)n1-c1ccccc1', '> 100 µM'),
  ('O=c1oc2c/c(=C\c3ccccn3)c(=O)c3cccc1c3-2', '> 100 µM'),
  ('CNN1C(=O)c2c(C)c(C)c(C#N)c(N)c2C1=O', '> 100 µM'),
  ('Cc1ccc2nc3c(C)cc(=O)cc-3sc2c1', '60.6 µM'),
  ('CC1C(=O)C(C)C(c2ccco2)N(N=O)C1c1ccco1 (stereo not drawn)', '> 100 µM'),
  ('O=C(NC1C(=O)NNC1c1ccccc1Cl)c1ccccc1 (stereo not drawn)', '> 100 µM');

Task: # get_value(readout='TGI', item= Cn1cnc([N+](=O)[O-])c1Sc1nc2ccc([N+](=O)[O-])cc2[nH]1 )
Result: > 100 µM

Task: Consider next the compound COC(=O)NC1C(C)OC(OC2C/C=C(/C)C3C=CC4C(OC5CC(OC6CC(OC7CC(O)C(O)C(C)O7)C(OC7CC(O)C(OC)C(C)O7)C(C)O6)C(O)C(C)O5)C(C)CC(C)C4C3(C)/C(O)=C3\C(=O)OC4(CC(C)C(CO)=CC4/C=C\2C)C3=O)CC1(C)[N+](=O)[O-] (stereo not drawn) in the same way.
Result: 4.86 µM

Task: Consider next the compound COc1c2ccccc2c(O)c2c(=O)ccn(C)c12 in the same way.
Result: 17 µM

Task: Consider next the compound O=S(=O)(Oc1ccc2ccccc2c1-c1c(OS(=O)(=O)C(F)(F)F)ccc2ccccc12)C(F)(F)F in the same way.
Result: > 100 µM

Task: Consider next the compound O=C1CC[C@@H](NC(=O)Cc2ccccc2)C(=O)N1 in the same way.
Result: > 100 µM

Task: Consider next the compound COc1cc(NC(=O)c2ccccc2Nc2ccnc(C(F)(F)F)c2)cc(OC)c1OC in the same way.
Result: > 100 µM

Task: Consider next the compound Clc1ccc(-c2nc3ccc4ccccc4c3c3c2CCCC3)cc1 in the same way.
Result: > 100 µM

Task: Consider next the compound CCc1ccc2c(c1)C(=O)c1c-2n(CCCN)c(=O)c2cc([N+](=O)[O-])ccc12 in the same way.
Result: 0.504 µM

Task: Consider next the compound COC(=O)N/N=C(/c1nc2ccc([N+](=O)[O-])cc2[nH]c1=O)C(O)c1ccc(OC)c(OC)c1 (stereo not drawn) in the same way.
Result: > 100 µM

Task: Consider next the compound O=c1c2cc(S(=O)(=O)Nc3ccc(Cl)cc3Cl)ccc2ncn1NS(=O)(=O)c1cccc2ccccc12 in the same way.
Result: > 100 µM

Task: Consider next the compound N#Cc1c(N)c(C#N)c2c(c1-c1ccc(Cl)cc1)COc1ccc(F)cc1-2 in the same way.
Result: > 50 µM

Task: Consider next the compound CC1(C=O)CCC23COC4(CCC5C6(C)CCC(OC7OCC(OC8OC(CO)C(O)C(OC9OC(CO)C(O)C(O)C9O)C8OC8OCC(O)C(O)C8O)C(O)C7OC7OC(CO)C(O)C(O)C7O)C(C)(C)C6CCC5(C)C4(C)CC2O)C3C1 (stereo not drawn) in the same way.
Result: 2.55 µM

---

- System: MDA-MB-231 breast
- test.method.notes: NCI tumour cell line growth inhibition, 48 h
readout.kind: TGI

Task: # get_value(readout='TGI', item= CN(C)c1ccc(/C=c2/c3ccccc3n3c2cc(NC(=O)NCCC[N+](C)(C)C)[n+]3C)cc1 )
Result: > 100 µM

Task: Consider next the molecule CCOC(=O)CC(=O)CSc1c(-c2ccccc2)c(=O)n(-c2ccccc2)c(=S)n1-c1ccccc1 in the same way.
Result: > 100 µM

---

Overview of recorded TGI for various molecules
- Test system: BT-549 breast
- test.method.notes: NCI tumour cell line growth inhibition, 48 h

// known answers, use as guide
INSERT INTO results (molecule, observed_value) VALUES
  ('O=S(=O)(Oc1ccc2ccccc2c1-c1c(OS(=O)(=O)C(F)(F)F)ccc2ccccc12)C(F)(F)F', '> 100 µM'),
  ('N=c1oc2ccc(Cl)cc2cc1C(N)=O', '> 100 µM'),
  ('CNc1ncc2cc(-c3cc(NC(=O)NCCC(C)(C)C)c(F)cc3C)c(C)nc2n1', '> 100 µM'),
  ('CCc1ccc(/C=C/C(=O)C2CN(CC)CCC2(O)/C=C/c2ccc(CC)cc2)cc1 (stereo not given)', '11.2 µM');

Continue with the molecule presented below.
Task: Give recorded TGI with BT-549 breast for the following molecule: Cn1cnc2c1c(=O)n(CCNCCO)c(=O)n2C
Result: > 100 µM

---

- Test system: SNB-19 CNS
- test.method.notes: NCI tumour cell line growth inhibition, 48 h
Overview of recorded TGI for various compounds

// known answers, use as guide
INSERT INTO assay_data (compound, observed_value) VALUES
  ('Cc1cc2c(cc1C)C(=O)/C(=C/c1ccccc1C(=O)O)C2', '> 100 µM'),
  ('CC(=O)O[C@H]1C(=O)[C@@]2(C)C(C(OC(=O)c3ccccc3)[C@]3(O)CC(OC(=O)C(O)C(NC(=O)c4ccccc4)c4cccc(Cl)c4)C(C)=C1C3(C)C)[C@]1(OC(C)=O)CO[C@@H]1C[C@@H]2O (some centres undefined)', '> 10 µM'),
  ('CC1CC(Br)C(=O)O1 (centres undefined)', '> 100 µM'),
  ('CCc1ccc(/C=C/C(=O)C2CN(CC)CCC2(O)/C=C/c2ccc(CC)cc2)cc1 (centres undefined)', '23.3 µM'),
  ('O=C(/C=C/c1ccc(O)cc1)c1cc(Cl)ccc1O', '> 100 µM');

Continue with the compound presented below.
Task: # get_value(readout='TGI', item= C=C(C)CC(C)(c1cc2ccccc2n1C)N1CCOCC1 (centres undefined) )
Result: > 100 µM
